# methodDescription: chemical genetic growth profiling, strain panel (AID 1159580);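 also: tested at 20 µM; growth read once vehicle control cultures reached saturation at 30 °C; 1 = growth at the plate median or of vehicle wells; lower values mean less growth of the strain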
# recordedConditions: S. cerevisiae deletion strains, growth OD, locus YNL250W, strain rad50, hits give low values
In all, about 5,500 compounds went through this assay and about 2,000 (36%) were called active. Inconclusive results (about 18%) are left out. The list shows a part of the results.
observationType: normalized growth
Note: the reply should be a number with no unit written.

INSERT INTO results (molecule, valuemeasured) VALUES
  ('C[C@@H]1C(=O)OC2[C@H](O)C34[C@@H]5OC(=O)[C@@]3(O[C@@H]3OC(=O)[C@H](O)[C@@]34[C@H](C(C)(C)C)[C@H]5O)[C@]21O (stereo not given in full)', 1.02),
  ('Cc1cccc(Nc2ccccc2C(=O)O)c1C', 0.988);

### Prompt Look up normalized growth for this molecule: CC(=O)Oc1c(C)cccc1C(=O)O
### Response 1.02

### Prompt Look up normalized growth for this molecule: COc1ccc2c(c1)CCC(c1ccccc1)=C2c1ccc(OCCN2CCCC2)cc1
### Response 0.953

### Prompt Look up normalized growth for this molecule: CC(C)NNC(=O)c1ccncc1
### Response 1.02
